# System tested: RAF proto-oncogene serine/threonine-protein kinase (Homo sapiens, UniProt P04049)
# Sequence (P04049 whole entry): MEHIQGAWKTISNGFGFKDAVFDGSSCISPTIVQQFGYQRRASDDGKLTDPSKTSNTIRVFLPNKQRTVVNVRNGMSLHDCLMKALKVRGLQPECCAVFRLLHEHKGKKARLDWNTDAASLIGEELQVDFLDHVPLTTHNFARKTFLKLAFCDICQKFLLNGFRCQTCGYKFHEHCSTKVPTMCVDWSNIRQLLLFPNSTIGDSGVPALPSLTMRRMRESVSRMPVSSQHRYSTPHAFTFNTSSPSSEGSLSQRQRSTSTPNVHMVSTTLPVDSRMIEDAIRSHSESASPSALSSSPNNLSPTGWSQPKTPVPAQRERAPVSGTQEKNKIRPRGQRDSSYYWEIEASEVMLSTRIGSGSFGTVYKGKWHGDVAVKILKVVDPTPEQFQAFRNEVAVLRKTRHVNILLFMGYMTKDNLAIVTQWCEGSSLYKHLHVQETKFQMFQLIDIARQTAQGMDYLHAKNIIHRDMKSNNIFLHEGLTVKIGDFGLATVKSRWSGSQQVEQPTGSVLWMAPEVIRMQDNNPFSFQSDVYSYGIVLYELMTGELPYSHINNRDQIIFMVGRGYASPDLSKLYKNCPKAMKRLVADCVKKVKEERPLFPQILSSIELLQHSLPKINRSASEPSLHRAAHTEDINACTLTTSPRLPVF
# Experimental details: Inhibition of human recombinant cRAF measured after 60 mins by TR-FRET assay
Please provide measured pIC50 for the entries that follow.
Note: pIC50 values are expressed as the negative base-10 logarithm of concentration in M.

## Input // lookup pIC50 for `Cc1ccc(NC(=O)c2ccnc(C(F)(F)F)n2)cc1-c1ccc2c(c1)OC1(CCOCC1)CC(=O)N2`
## Output 6.48

## Input // lookup pIC50 for `Cc1cnc(NC(=O)c2ccnc(C(F)(F)F)c2)cc1-c1ccc2c(c1)OC1(CCOCC1)CC(=O)N2`
## Output 8.74

## Input // lookup pIC50 for `Cc1ccc(NC(=O)c2cc(C(F)(F)F)nn2C)cc1-c1ccc2c(c1)OC1(CCOCC1)CC(=O)N2`
## Output 7.55

## Input // lookup pIC50 for `Cc1ccc(NC(=O)c2cc(OC3CC3)cnn2)cc1-c1ccc2c(c1)OC1(CCOCC1)CC(=O)N2`
## Output 8.47

## Input // lookup pIC50 for `Cc1cc(F)c(NC(=O)N(C)c2ccnc(C(F)(F)F)c2)cc1-c1ccc2c(c1)OC1(CCOCC1)CC(=O)N2`
## Output 8.33

## Input // lookup pIC50 for `Cc1ccc(NC(=O)c2ccnc(C(F)(F)F)c2)cc1-c1cc(OCCO)nc(N2CCOCC2)c1`
## Output 8.07

## Input // lookup pIC50 for `Cc1ccc(NC(=O)c2cc(C(F)(F)F)cnn2)cc1-c1ccc2c(c1)OC1(CCOCC1)CC(=O)N2C`
## Output 8.41

## Input // lookup pIC50 for `Cc1ccc(NC(=O)c2ccnc(C(F)(F)F)c2)cc1-c1ccc2c(c1)OC1(CCOCC1)CC(=O)N2CCO`
## Output 9.08

## Input // lookup pIC50 for `COc1ccc(NC(=O)c2ccnc(C(F)(F)F)c2)cc1-c1ccc2c(c1)OC1(CCOCC1)CC(=O)N2`
## Output 8.44

## Input // lookup pIC50 for `COc1nnc(C(=O)Nc2ccc(C)c(-c3ccc4c(c3)OC3(CCOCC3)CC(=O)N4)c2)cc1C(F)(F)F`
## Output 7.66

## Input // lookup pIC50 for `Cc1ccc(NC(=O)c2ccnc(C3CC3)c2)cc1-c1ccc2c(c1)OC1(CCOCC1)CC(=O)N2`
## Output 8.15

## Input // lookup pIC50 for `Cc1ccc(NC(=O)c2cc(OCCO)nc(OC(F)F)c2)cc1-c1ccc2c(c1)OC1(CCOCC1)CC(=O)N2`
## Output 8.04

## Input // lookup pIC50 for `Cc1ccc(NC(=O)c2ccnc(C(F)(F)F)c2)cc1-c1ccc2c(c1)OC1(CCOCC1)CN(CCO)C2=O`
## Output 8.89

## Input // lookup pIC50 for `Cc1ccc(NC(=O)c2ccnc(C(F)(F)F)c2)cc1-c1ccc2c(c1)OC1(CCOCC1)CC(=O)N2`
## Output 8.29

## Input // lookup pIC50 for `Cc1ccc(NC(=O)c2ccnc(C(F)(F)F)c2)cc1-c1ccc2c(c1)OC1(CCOCC1)CN(C)C2=O`
## Output 8.89

## Input // lookup pIC50 for `Cc1ccc(-c2nnc(-c3ccnc(C(F)(F)F)c3)[nH]2)cc1-c1ccc2c(c1)OC1(CCOCC1)CC(=O)N2`
## Output 7.32

## Input // lookup pIC50 for `Cc1ccc(NC(=O)c2cccc(C(F)(F)F)n2)cc1-c1ccc2c(c1)OC1(CCOCC1)CC(=O)N2`
## Output 7.71

## Input // lookup pIC50 for `Cc1ccc(NC(=O)c2cncc(C(F)(F)F)c2)cc1-c1ccc2c(c1)OC1(CCOCC1)CC(=O)N2`
## Output 8.27

## Input // lookup pIC50 for `Cc1ccc(NC(=O)c2cc(OCCO)nc(C(F)(F)F)c2)cc1-c1ccc2c(c1)OC1(CCOCC1)CC(=O)N2`
## Output 7.59

## Input // lookup pIC50 for `Cc1ccc(NC(=O)c2cnnc(C(F)(F)F)c2)cc1-c1ccc2c(c1)OC1(CCOCC1)CC(=O)N2`
## Output 8.49

## Input // lookup pIC50 for `Cc1cc(F)c(NC(=O)Nc2ccnc(C(F)(F)F)c2)cc1-c1ccc2c(c1)OC1(CCOCC1)CC(=O)N2`
## Output 8.17

## Input // lookup pIC50 for `Cc1ccc(NC(=O)c2ccnc(C(F)(F)F)c2)cc1-c1ccc2c(c1)OC1(CCOCC1)CNC2=O`
## Output 8.44

## Input // lookup pIC50 for `Cc1ccc(NC(=O)c2cc(C(F)(F)F)ncn2)cc1-c1ccc2c(c1)OC1(CCOCC1)CC(=O)N2`
## Output 8.26

## Input // lookup pIC50 for `Cc1ccc(NC(=O)c2ccnc(C(F)(F)F)c2)cc1-c1ccc2c(c1)OC1(CCN2)CCOCC1`
## Output 8.27

## Input // lookup pIC50 for Cc1ccc(NC(=O)C2CCNC(C(F)(F)F)C2)cc1-c1ccc2c(c1)OC1(CCOCC1)CC(=O)N2 (stereo not drawn)
## Output 8.48

## Input // lookup pIC50 for `Cc1cc(F)c(NC(=O)Cc2ccnc(C(F)(F)F)c2)cc1-c1ccc2c(c1)OC1(CCOCC1)CC(=O)N2`
## Output 8.49

## Input // lookup pIC50 for `Cc1ccc(NC(=O)c2cc(C(F)(F)F)cnn2)cc1-c1ccc2c(c1)OC1(CCOCC1)CC(=O)N2CCO`
## Output 8.59

## Input // lookup pIC50 for `Cc1ccc(NS(=O)(=O)c2ccnc(C(F)(F)F)c2)cc1-c1ccc2c(c1)OC1(CCOCC1)CC(=O)N2`
## Output 7.49

## Input // lookup pIC50 for `Cc1ccc(NC(=O)c2ccnc(C(F)(F)F)c2)nc1-c1ccc2c(c1)OC1(CCOCC1)CC(=O)N2`
## Output 8.66

## Input // lookup pIC50 for `Cc1ccc(NC(=O)c2ccnc(C(F)(F)F)c2)cc1-c1ccc2c(c1)OC1(CCOCC1)CN(CC(C)(C)O)C2=O`
## Output 7.47

## Input // lookup pIC50 for `Cc1ccc(NC(=O)c2cc(C(F)F)cnn2)cc1-c1ccc2c(c1)OC1(CCOCC1)CC(=O)N2`
## Output 9.10

## Input // lookup pIC50 for `Cc1ccc(NC(=O)c2cncc(C(F)(F)F)n2)cc1-c1ccc2c(c1)OC1(CCOCC1)CC(=O)N2`
## Output 8.48

## Input // lookup pIC50 for `Cc1ccc(NC(=O)c2cc(C(F)(F)F)ccn2)cc1-c1ccc2c(c1)OC1(CCOCC1)CC(=O)N2`
## Output 7.95
